These measurements were taken from patent US20250027068.

- target-of-assay: pooled human IgG (human IgG1, 2, 3 and 4)
metric-name: Enzyme Activity Endpoint Assay (purified): scIgG (ng/µL)
Enter your answer as a number in ng/µL; do not include the unit.

## Input Could you tell me which Enzyme Activity Endpoint Assay (purified): scIgG is on file for PRT-637 (protein) MQITSVWTKGVTPLTPEQFRYNNEDVIHAPYLAHQGWYDITKAFDGGDGLLCGAATAGNMLHWWFDQNKTEIEAYLSKHPEKQKIIFNNQELFDLKAAIDTKDSQTNSQLFNYFRDKAFPNLSARQKGVMPDLVLDMFINGYYLNVFKTQSTDVNRPYQDKDKRGGIFDAVFTRGDQTTLLTARHDLKNKGLNDISTIIKQELTEGRALALSHTYANVSISHVINLWGADFNAEGNLEAIYVTDSDAGNGIGMKKYFVGINAHGHVAISAKKIEGENIGAQVLGLFTLSSGKDIWQKLSLEHHHHHH ?
## Output 602
